assay: Human HepG2 cell viability assay in 384 well format; format: toxicity, cell-based; set-up: dose 125 nL, time 70.5 hour; concentration not given beside the values; settings: HepG2 cells, read-out: Inhibition
Measure name: cytotoxicity at 70.5 h

{"columns": ["Compound", "Measure name", "Recorded value"],
 "data": [
  ["CCc1ccc(C(=O)O)cc1S(=O)(=O)Nc1ccc(=O)n(C)c1", "cytotoxicity at 70.5 h", "5.54%"],
  ["Cc1noc(C)c1CNCC1CCCN1c1cccnn1 (stereo unspecified)", "cytotoxicity at 70.5 h", "22.6%"],
  ["CCN1C[C@H]2[C@@H](C1)N(S(=O)(=O)c1cccnc1)CC[C@H]2OC", "cytotoxicity at 70.5 h", "45.6%"],
  ["CCCSCC(=O)Nc1ncn(CC(=O)N2CCCCCC2)n1", "cytotoxicity at 70.5 h", "-1.09%"],
  ["Cc1cc(CN(C2CC2)C(C)C(C)C)on1 (stereo unspecified)", "cytotoxicity at 70.5 h", "1.68%"],
  ["COc1ccccc1OC1CCN(Cc2cccnc2)CC1", "cytotoxicity at 70.5 h", "-3.86%"]
]}

====

Recorded cytotoxicity at 70.5 h values for a group of molecules are listed next.
experiment: Human HepG2 cell viability assay in 384 well format; assay type: toxicity, cell-based; set-up: dose 125 nL, time 70.5 hour; concentration not given beside the values; conditions: HepG2 cells, read-out: Inhibition
Measure name: cytotoxicity at 70.5 h (%)

{"columns": ["Molecule", "Recorded value"],
 "data": [
  ["CSCCC(NC(=O)c1ccccc1)C(=O)N(C)Cc1ccsc1 (centres undefined)", -7],
  ["CC(C)Oc1ccc(C(O)CNCc2ccccc2C(F)(F)F)cc1 (centres undefined)", -6.08],
  ["Cn1c(C(F)(F)F)nn(CCNC(=O)Nc2ccccc2Cl)c1=O", 25.1],
  ["N#Cc1ccc(OCCOc2ccccc2C(=O)N2CCOCC2)cc1", -9.24],
  ["CNC(=O)C1CCC(NC(=O)c2cc(C3CC3)n(C(C)(C)C)n2)CC1 (centres undefined)", -6.36],
  ["Cc1nn(C)c(C)c1CN(C(=O)c1cc(Cl)c[nH]c1=O)C(C)C", -11],
  ["COC(=O)c1cccc2nc([C@H]3CCN(Cc4ccccc4F)C3)oc12", -6.68],
  ["O=C(c1cnn2c1OCCC2)N1CCN(C(=O)C2CCCO2)CC1 (centres undefined)", -5.75],
  ["O=C(NCCS(=O)(=O)N1CCN(c2ncccn2)CC1)C1CC1", 16.5],
  ["CCN1CC(COC(C)(C)C)Oc2ccncc2S1(=O)=O (centres undefined)", -4.84],
  ["Cc1noc(C)c1C(=O)N1CC[C@H]2C[C@@H](c3ccncn3)O[C@@H]2C1", -5.05],
  ["COc1nn(C)c2c1CCCN(C(=O)c1cnccn1)C2", 1.47],
  ["Cc1cc(C(=O)N2CCCCC2c2nc(C)cs2)[nH]n1 (centres undefined)", -7.87],
  ["COC(=O)N1CCc2ccccc2C1C(=O)NCc1cccs1 (centres undefined)", -6.75],
  ["COCc1ccccc1CNC(=O)CNc1ccccc1C(C)=O", 2.64],
  ["Cc1nnc(NC(=O)NCCCN2CCC(C(N)=O)CC2)s1", -8.8],
  ["OCC(O)CSCc1nnc(-c2ccc(Cl)cc2)o1 (centres undefined)", -13.7],
  ["CNc1nc(C2CCCN2C(C)=O)nc2c1CN(CCO)CC2 (centres undefined)", -3.16],
  ["O=C(Cc1cccs1)NCC1(O)CCSCC1", -3.88],
  ["OCCN1CCN(Cc2cn(-c3ccccc3)nn2)CC1", -11.9],
  ["COCCN1CCC(CNC(=O)c2c[nH]c(=O)c(Cl)c2)CC1", -10.5],
  ["CN(Cc1cnn(C)c1)C(=O)c1ccc(=O)n(Cc2ccccc2)n1", 27.5],
  ["CCC(c1ccccc1)N1CCN(CCO)CC1 (centres undefined)", -6.76],
  ["CCc1ccc(S(=O)(=O)N2CC3(COC(C)(C)OC3)C2)s1", 14.1]
]}
